Value source: patent US11174268B2

# studyTarget: NaV1.1 (Homo sapiens (Human), UniProt P35498)
# procedureSummary: Electrophysiological Assay (EP), patch voltage clamp, NaV1.1;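 note: sodium current block measured at ambient temperature, holding at fully inactivating potential, 20 ms repolarization to −150 mV before test pulse, versus 0.5% DMSO control currents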
# Format: cell-based
# appliedConditions: HEK-293 cells, whole-cell patch clamp
Structures can show the parent of a compound that is named as a salt.
observedProperty: IC50 (µM)

1) CCC(Nc1cc(F)c(S(=O)(=O)Nc2nccs2)cc1Cl)c1ccccc1 (stereo not shown)	0.277
2) O=S(=O)(Nc1nccs1)c1cc(Cl)c(N[C@@H](CN2CCC2)c2ccccc2)cc1F [Example 66, 2,2,2-trifluoroacetate]	10
3) CC[C@H](Nc1cc(F)c(S(=O)(=O)Nc2ccncn2)cc1Cl)c1ccccc1Cl [Example 277, 2,2,2-trifluoroacetate]	5.59
4) O=S(=O)(Nc1cscn1)c1ccc(NCc2c(F)cccc2CN2CC(F)C2)c(Cl)c1F	10
5) O=S(=O)(Nc1nccs1)c1cc(Cl)c(NCc2cccc3ccncc23)cc1F	0.283
6) O=S(=O)(Nc1cscn1)c1c(F)cc(NCc2c(F)ccc(F)c2CN2CCC2)cc1F	14.5
7) O=S(=O)(Nc1cscn1)c1cc(Cl)c(NCc2c(F)ccc(F)c2CN2CCC2)cc1F [Example 288, hydrochloride]	10
8) C[C@H](Oc1ccc(S(=O)(=O)Nc2nccs2)c(F)c1Cl)c1ccccc1F	5.47
9) CN(C)CC(Nc1cc(F)c(S(=O)(=O)Nc2nccs2)cc1Cl)c1ccccc1 (stereo not shown) [Example 63, 2,2,2-trifluoroacetate]	10
10) CN(C)C[C@H](Nc1cc(F)c(S(=O)(=O)Nc2nccs2)cc1Cl)c1ccccc1 [Example 65, 2,2,2-trifluoroacetate]	10

a = C[C@H](Nc1ccc(S(=O)(=O)Nc2ccncn2)c(F)c1Cl)c1ccccc1Cl
b = O=S(=O)(Nc1nccs1)c1cc(Cl)c(NC2(c3ccc(F)cc3)CC2)cc1F
When the recorded IC50 values are compared, which is smaller: that of a or that of b ? Response format: the label of the selected entry.
b
(b: 2.09 µM, a: 10 µM)

A = C[C@H](Nc1ccc(S(=O)(=O)Nc2cscn2)c(F)c1Cl)c1cc(Cl)ccc1F
B = C[C@H](Oc1cc(F)c(S(=O)(=O)Nc2nccs2)cc1F)c1ccccc1F
When the recorded IC50 values are compared, which is smaller: that of A or that of B ? Response format: the label of the selected entry.
B

1 = C[C@H](Oc1cc(F)c(S(=O)(=O)Nc2cscn2)cc1Cl)c1ccccc1F
2 = O=S(=O)(Nc1nccs1)c1cc(Cl)c(NCc2ccccc2CN2CCC2)cc1F [Example 16, 2,2,2-trifluoroacetate]
Determine, for 1 and 2 , which has the greater value of IC50. Response format: the label of the selected entry.
1
(1: 10 µM, 2: 2.19 µM)

###

# studyTarget: NaV1.1 (Homo sapiens (Human))
# procedureSummary: Sodium Influx Assay (Flux), NaV1.1;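 note: channels co-expressed with human β1 subunit and held open by modulators, cells exposed to compounds for one hour at room temperature, IC50 from percent inhibition of influx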
# Type: cell-based
# appliedConditions: Trex HEK293 cells, ANG2 dye, inactivated state
Counter-ions that a name gives are not always drawn.
observedProperty: IC50 (µM)

Please review the following examples before continuing.
1. Cc1c(NCc2ccccc2CN2CCC2(C)C)cc(F)c(S(=O)(=O)Nc2cscn2)c1F [Example 305, 2,2,2-trifluoroacetate]	14.2
2. O=S(=O)(Nc1cscn1)c1c(F)cc(NCc2c(F)cccc2CN2CCC2)cc1F [Example 302, 2,2,2-trifluoroacetate]	9.67
3. C=Cc1cc(S(=O)(=O)Nc2cscn2)c(F)cc1NCc1ccccc1CN1CCC1 [Example 323, formate]	9.38
4. O=S(=O)(Nc1cscn1)c1c(F)cc(NCc2ccccc2CN2CCC2)cc1F [Example 272, formate]	20.7
5. CC(CNc1ccc(S(=O)(=O)Nc2ncns2)cc1Cl)c1ccccc1 (stereo not drawn) [Example 34]	0.84
6. O=S(=O)(Nc1cscn1)c1cc(Cl)c(OC2CCc3c2cccc3C(F)(F)F)cc1F (stereo not drawn) [Example 29]	30
7. C[C@H](Oc1cc(F)c(S(=O)(=O)Nc2nccs2)cc1Cl)c1ccccc1F [Example 116]	5.78
8. O=S(=O)(Nc1cscn1)c1c(F)cc(NCc2c(F)cccc2CN2CCC3(CCC3)C2)cc1F [Example 159, formate]	9.21

A = C[C@@H](O)c1cccc(F)c1CNc1cc(F)c(S(=O)(=O)Nc2cscn2)c(F)c1 [Example 299]
B = C[C@H](Oc1ccc(S(=O)(=O)Nc2ncns2)cc1Cl)c1ccccc1 [Example 88]
Determine, for A and B , which has the greater value of IC50. Response format: the label of the selected entry.
B

1 = O=S(=O)(Nc1cscn1)c1c(F)cc(NCc2ccccc2CCN2CC(F)C2)cc1F [Example 320, formate]
2 = C[C@H](Nc1cc(F)c(S(=O)(=O)Nc2nccs2)cc1Cl)c1cc(Cl)ccc1F [Example 8]
3 = CC1(F)CN(Cc2cccc(F)c2CNc2cc(F)c(S(=O)(=O)Nc3cscn3)c(F)c2)C1 [Example 180, formate]
Sort (3 molecules) by IC50: min first. Output spec: labels arranged per the requested ranking.
2, 1, 3
(2: 1.63 µM, 1: 6.5 µM, 3: 22.1 µM)

P = C[C@H](Nc1cc(F)c(S(=O)(=O)Nc2cccc(F)n2)cc1Cl)c1ccccc1F [Example 22]
Q = O=S(=O)(Nc1cscn1)c1cc(Cl)c(N[C@H]2C[C@H](N3CCC3)c3ccccc32)cc1F [Example 264, formate]
R = CCC(Nc1cc(F)c(S(=O)(=O)Nc2nccs2)cc1Cl)c1ccc2c(c1)CCCC2 (stereo not drawn) [Example 55]
Sort (3 molecules) by IC50: min first. Output spec: labels arranged per the requested ranking.
P, R, Q
(P: 4.29 µM, R: 16.1 µM, Q: 30 µM)
